experiment: Human liver microsome metabolic stability; format: in vitro ADME; settings: microsomes, pH 7.4, 1 μM compound, 0.5 mg/mL protein, NADPH, read-out: Human liver microsome experiment CLint
ATTRIBUTE MEASURED: microsomal CLint at 1 μM (µL/min/mg)
Field: numeric (µL/min/mg). Do not append units.

Problem: Look at this compound and give its reported microsomal CLint at 1 μM. CC(C)OC(=O)[C@H](C)NP(=S)(CO[C@H](C)Cn1cnc2c(N)ncnc21)Oc1ccccc1 (stereo partly shown)
Result: 285

---

Assay: Rat liver microsome metabolic stability
Format: in vitro ADME
Details: SD, microsomes, pH 7.4, 1 μM compound, 0.5 mg/mL protein, NADPH, read-out: Rat liver microsome experiment CLint
Experimental: Microsomal experiments: human liver microsomes: 0.5 mg/mL, Xenotech; rat liver microsomes: 0.5 mg/mL, Xenotech; coenzyme (NADPH/NADH): 1 mM, Sigma Life Science; magnesium chloride: 5 mM, 100 mM phosphate buffer (pH 7.4). […] Data analysis: The peak area of the corresponding compounds and internal standard was detected by LC-MS/MS system, and the peak area ratio of compounds to internal standard was calculated. […]
ATTRIBUTE MEASURED: microsomal CLint at 1 μM

Problem: Look at this compound and give its reported microsomal CLint at 1 μM. CC(C)OC(=O)[C@H](C)NP(=S)(CO[C@H](C)Cn1cnc2c(N)ncnc21)Oc1ccccc1 (stereo partly shown)
Result: 82.5 µL/min/mg

---

Please respond with reported half-life for every item in the list.
Assay: Human liver microsome metabolic stability
Format: in vitro ADME
Conditions: microsomes, pH 7.4, 1 μM compound, 0.5 mg/mL protein, NADPH, read-out: Human liver microsome experiment t1/2
Description: Microsomal experiments: human liver microsomes: 0.5 mg/mL, Xenotech; rat liver microsomes: 0.5 mg/mL, Xenotech; coenzyme (NADPH/NADH): 1 mM, Sigma Life Science; magnesium chloride: 5 mM, 100 mM phosphate buffer (pH 7.4). […] Data analysis: The peak area of the corresponding compounds and internal standard was detected by LC-MS/MS system, and the peak area ratio of compounds to internal standard was calculated. […]

Problem: Look at this compound and give its reported half-life. CCCCCCCCCCCCCCCCOCCCOP(O)(=S)CO[C@H](C)Cn1cnc2c(N)ncnc21 (stereo partly drawn)
Result: 3.04 min

Problem: Look at this compound and give its reported half-life. CCCCCCCCCCCCCCCCOCCCOP(=S)(CO[C@H](C)Cn1cnc2c(N)ncnc21)N[C@@H](C)C(=O)OC(C)C (stereo partly drawn)
Result: 107 min

Problem: Look at this compound and give its reported half-life. CCCCCCCCCCCCCCCCOCCCOP(=S)(CO[C@H](C)Cn1cnc2c(N)ncnc21)OCOC(=O)OC(C)C (stereo partly drawn)
Result: 11.9 min

---

experiment: Cytotoxicity in uninfected MT-4 cells (CellTiter-glo); type: cell-based; details: human, 5 days, read-out: HIV activity and cytotoxicity data CC50
Please respond with reported CC50 for every item in the list.

Problem: Look at this compound and give its reported CC50. CCCCCCCCCCCCCCCCOCCCOP(O)(=S)CO[C@H](C)Cn1cnc2c(N)ncnc21 (stereo partly drawn) [Compound T-1]
Result: 3 to 10 µM

Problem: Look at this compound and give its reported CC50. CCCCCCCCCCCCCCCCOCCCOP(=S)(CO[C@H](C)Cn1cnc2c(N)ncnc21)N[C@@H](C)C(=O)OC(C)C (stereo partly drawn) [Compound T-6]
Result: 3 to 10 µM

Problem: Look at this compound and give its reported CC50. CCCCCCCCCCCCCCCCOCCCOP(=S)(CO[C@H](C)Cn1cnc2c(N)ncnc21)OCOC(=O)OC(C)C (stereo partly drawn) [Compound T-4]
Result: > 50 µM
